Values from paper PMC8469034

# target system: Dh-mPPase (Desulfitobacterium hafniense)
# Construct: gene hppA; full-length membrane protein expressed in E. coli C41(DE3)ril, assayed in inverted membrane vesicles; homodimer; K+-dependent H+-transporting, EC 7.1.3.1
# protocol notes: continuous Pi analyzer assay of PPi hydrolysis, inverted membrane vesicles, global fit
# Assay type: biochemical
# test context: read-out: Value / HEDP
reported endpoint: pKi
Scale explanation: pKi corresponds to minus log10 of a concentration expressed in moles per litre.

## Task Requested read-out: pKi. Entry: CC(O)(P(=O)(O)O)P(=O)(O)O
## Result 4.57

###

# target system: Dh-mPPase (Desulfitobacterium hafniense, UniProt B8FXV7)
# Construct: gene hppA; full-length membrane protein expressed in E. coli C41(DE3)ril, assayed in inverted membrane vesicles; homodimer; K+-dependent H+-transporting, EC 7.1.3.1
# Sequence (B8FXV7 1-671): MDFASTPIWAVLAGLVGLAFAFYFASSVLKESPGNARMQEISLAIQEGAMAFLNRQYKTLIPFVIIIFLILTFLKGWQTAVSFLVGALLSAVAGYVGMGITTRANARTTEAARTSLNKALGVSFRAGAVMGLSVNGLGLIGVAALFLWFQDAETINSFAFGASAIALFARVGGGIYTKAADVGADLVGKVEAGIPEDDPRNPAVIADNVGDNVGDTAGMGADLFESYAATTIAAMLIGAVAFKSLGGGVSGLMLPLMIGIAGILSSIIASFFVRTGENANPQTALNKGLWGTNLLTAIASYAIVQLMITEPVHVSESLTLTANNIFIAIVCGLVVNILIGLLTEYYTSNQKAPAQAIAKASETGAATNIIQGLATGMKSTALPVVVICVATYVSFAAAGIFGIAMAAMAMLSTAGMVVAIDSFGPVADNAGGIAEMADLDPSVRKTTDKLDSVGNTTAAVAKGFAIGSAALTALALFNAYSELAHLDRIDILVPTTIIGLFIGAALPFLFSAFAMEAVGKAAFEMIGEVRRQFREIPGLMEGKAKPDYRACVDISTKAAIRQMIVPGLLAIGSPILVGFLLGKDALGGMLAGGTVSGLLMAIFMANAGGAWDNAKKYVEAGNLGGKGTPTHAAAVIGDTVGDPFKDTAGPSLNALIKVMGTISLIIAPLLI
# protocol notes: continuous Pi analyzer assay of PPi hydrolysis, inverted membrane vesicles, global fit
# Format: biochemical
# test context: read-out: Value / IDP
reported endpoint: pKi
Scale explanation: pKi corresponds to minus log10 of a concentration expressed in moles per litre.

## Task Requested read-out: pKi. Entry: O=P(O)(O)NP(=O)(O)O [IDP]
## Result 5.38
